Test system: WPMY1-ACTB-RAB5A
Assay: phenotypically active (imaging signature differs from DMSO and reproducible) at any of 0.3-9 uM (binary (1 = active, 0 = inactive)); higher = active
Conditions: treatment time: 24 h
Structures can show the parent of a compound that is named as a salt.
recorded-metric: phenotypically active

>>> recorded_number("CC[C@@H]1C(=O)OC[C@@H]1Cc1cncn1C [Pilocarpine hydrochloride]")
0
>>> recorded_number("Nc1cc(N)c(N)cc1N")
1
>>> recorded_number("CC(=O)Oc1ccccc1C(=O)O")
0
>>> recorded_number("CNC1CCC2(C)C(=CCC3C2CCC24CN(C)C(C)C2CCC34)C1 (stereo not given)")
1
>>> recorded_number("CCCC1(CCC)CCC2(CCN(CCCN(CC)CC)C2)CC1 [Atiprimod dihydrochloride]")
1
>>> recorded_number("COc1c(C=O)c(O)cc2c1C(=O)c1ccccc1C2=O")
1
>>> recorded_number("CC(=O)C1=C(O)[C@]2(C)C(=CC1=O)Oc1c(C(C)=O)c(O)c(C)c(O)c12 [(+)-Usnic acid]")
0
>>> recorded_number("c1ccc2c(c1)Cc1c(Nc3ccc4c(c3)OCCO4)n[nH]c1-2")
1
>>> recorded_number("Cc1c[nH]c2nccc(Oc3c(F)cc(Nc4cc(Cl)nc(N)n4)cc3F)c12")
1
>>> recorded_number("C[n+]1cccc(C(=O)O)c1 [Trigonelline hydrochloride]")
0

---

Test system: A549-TUBA1B-RELA
Test: lowest phenotypically active concentration; higher = less potent
Details: treatment time: 24 h
Where a name gives a salt, the structure may show the parent alone.
recorded-metric: lowest phenotypically active concentration (µM)

>>> recorded_number("c1cc(-c2cc(C3CCNCC3)[nH]n2)ccn1")
9
>>> recorded_number("Cc1ccc(NC(=O)c2cccc(N(C)C)c2)cc1NC(=O)c1ccc(O)cc1")
3
>>> recorded_number("CCC(=O)N1CCOc2c(cc(-c3ccc(OC)c(OC)c3)cc2OC[C@H]2CCCN(C)C2)C1")
9
>>> recorded_number("Cc1ccc(NC(=O)c2cccc(C(C)(C)C#N)c2)cc1Nc1ccc2ncn(C)c(=O)c2c1")
9
>>> recorded_number("COc1ccc(CCN(C)CCCC(C#N)(c2ccc(OC)c(OC)c2)C(C)C)cc1OC (stereo not given)")
9
>>> recorded_number("CSc1ccc2c(c1)N(CCC1CCCCN1C)c1ccccc1S2 (stereo not given)")
3
>>> recorded_number("CC(CN1c2ccccc2Sc2ccccc21)N(C)C (stereo not given)")
9
>>> recorded_number("CN1CCCC(n2nc(Cc3ccc(Cl)cc3)c3ccccc3c2=O)CC1 (stereo not given)")
3
>>> recorded_number("Nc1nnc(Sc2ncc([N+](=O)[O-])s2)s1")
9
>>> recorded_number("C=CC(=O)Nc1cccc(Nc2nc(Nc3ccc(Oc4ccnc(C(=O)NC)c4)cc3)ncc2F)c1")
9
>>> recorded_number("O=C1Nc2ccc(F)cc2C1=C1Nc2ccccc2C1=NO")
1
>>> recorded_number("COCC(=O)O[C@]1(CCN(C)CCCc2nc3ccccc3[nH]2)CCc2cc(F)ccc2[C@@H]1C(C)C")
3
>>> recorded_number("CC(C)[C@@H](C)/C=C/[C@@H](C)[C@H]1CC[C@H]2C3=CC=C4C[C@@H](O)CC[C@]4(C)[C@H]3CC[C@]12C")
9
>>> recorded_number("CCOC(=O)Nc1cc(-c2ccc(C)c(NS(C)(=O)=O)c2)nn2c(C)nnc12")
1
>>> recorded_number("Nc1ccc(-c2cccc3c(=O)cc(N4CCOCC4)oc23)cc1")
9
>>> recorded_number("Cn1cc(C2=C(c3ccc(Cl)cc3Cl)C(=O)NC2=O)c2ccccc21")
1
>>> recorded_number("COc1cc2c(cc1O)CC[C@@H]1[C@@H]2CC[C@]2(C)[C@@H](O)CC[C@@H]12")
1
>>> recorded_number("CCN(CC)CCNc1ccc(CO)c2sc3ccccc3c(=O)c12")
9
>>> recorded_number("CC(C)(C)c1cc(NC(=O)Nc2ccc(-c3cn4c(n3)sc3cc(OCCN5CCOCC5)ccc34)cc2)no1")
3
>>> recorded_number("CC(C)(C)n1nc(-c2ccc(Cl)cc2)c2c(N)ncnc21")
9
>>> recorded_number("Cc1cc(Nc2nc(N[C@@H](C)c3ncc(F)cn3)ncc2Cl)n[nH]1")
1
>>> recorded_number("Cc1ccc(NC2=CC(=O)c3sc(C)nc3C2=O)cc1")
3
>>> recorded_number("O=c1c(-c2ccc(O)cc2)coc2cc(O)cc(O)c12")
9
>>> recorded_number("COc1cc2ncnc(Nc3ccc(Cl)cc3F)c2cc1OC")
3
>>> recorded_number("NC(=O)c1cccc(-c2cc(Nc3ccc(OC(F)(F)F)cc3)ncn2)c1")
9
>>> recorded_number("O=C(NCCN1CCC(n2c(=O)[nH]c3ccccc32)CC1)c1cc2cc(F)ccc2[nH]1")
3
>>> recorded_number("COc1cc(N2CCC(N3CCN(C)CC3)CC2)ccc1Nc1ncnc(Nc2ccccc2S(=O)(=O)C(C)C)n1")
9
>>> recorded_number("COc1ccc(C[C@H](N)C(=O)N[C@H]2[C@@H](O)[C@H](n3cnc4c(N(C)C)ncnc43)O[C@@H]2CO)cc1 [Puromycin dihydrochloride]")
1

---

Tested on: A549-ACTB-RAB5A
Test: lowest phenotypically active concentration; higher = less potent
Details: treatment time: 24 h
Counter-ions that a name gives are not always drawn.
recorded-metric: lowest phenotypically active concentration (µM)

>>> recorded_number("O=C1NCCN1CCN1CCC(c2cn(-c3ccc(F)cc3)c3ccc(Cl)cc23)CC1")
3
>>> recorded_number("CCOC(=O)N1CCC(=C2c3ccc(Cl)cc3CCc3cccnc32)CC1")
9
>>> recorded_number("CCc1nc(-c2cccc(C)c2)c(-c2ccnc(NC(=O)c3ccccc3)c2)s1")
9
>>> recorded_number("Nc1ncnc2c1c(-c1ccc(Oc3ccccc3)cc1)nn2C1CCCC1")
9
>>> recorded_number("COc1cc2c(cc1O)CC[C@@H]1[C@@H]2CC[C@]2(C)[C@@H](O)CC[C@@H]12")
1
>>> recorded_number("COc1c(Cl)cc2c([nH]c3cnccc32)c1NC(=O)c1cccnc1C [ML 120B dihydrochloride]")
9
>>> recorded_number("CN(C)c1ccc(/C=C2\\C(=O)Nc3ccccc32)cc1")
9
>>> recorded_number("CC(C)c1c(C(=O)Nc2ccccc2)c(-c2ccccc2)c(-c2ccc(F)cc2)n1CC[C@@H](O)C[C@@H](O)CC(=O)O")
3
>>> recorded_number("COc1cc(N2CCC(N3CCN(C)CC3)CC2)ccc1Nc1ncnc(Nc2ccccc2S(=O)(=O)C(C)C)n1")
3
>>> recorded_number("Cc1cc(Nc2nc(N[C@@H](C)c3ncc(F)cn3)ncc2Cl)n[nH]1")
3

---

System: HepG2-CANX-COX4
Test: lowest phenotypically active concentration; higher = less potent
Settings: treatment time: 24 h
recorded-metric: lowest phenotypically active concentration (µM)

>>> recorded_number("N#Cc1cccc(-c2c[nH]c3ncnc(N4CCOCC4)c23)c1")
3
>>> recorded_number("COc1cc(OC2CCN(C)CC2)ccc1Nc1ncc2c(n1)n(C1CCCC1)c(=O)n2C")
9
>>> recorded_number("Cc1c(C(=O)N2CCOc3ccc(-c4ccc(N)nc4)cc3C2)ccc(S(C)(=O)=O)c1F")
3
>>> recorded_number("COc1ccc2c(NC(=O)Nc3cccc(C(F)(F)F)n3)ccnc2c1")
1
>>> recorded_number("COc1cc(N2CCC(N)CC2)ccc1Nc1ncc(Cl)c(-c2c[nH]c3ccccc23)n1")
1
>>> recorded_number("NS(=O)(=O)c1nn2cc(-c3ccccc3)nc2s1")
9
>>> recorded_number("Cc1cc(C(=O)Nc2cccc(C(=O)Nc3cccc(C(F)(F)F)c3)c2)on1")
1

---

Tested on: A549-CANX-COX4
Assay: lowest phenotypically active concentration; higher = less potent
Conditions: treatment time: 24 h
Where a name gives a salt, the structure may show the parent alone.
Readings of lowest phenotypically active concentration for the listed molecules
recorded-metric: lowest phenotypically active concentration (µM)

>>> recorded_number("Nc1nc(S)c2[nH]cnc2n1")
9
>>> recorded_number("COc1cc(N2CCC(O)CC2)ccc1Nc1cc(Nc2ccccc2S(=O)(=O)C(C)C)c2cc[nH]c2n1 [Mps1-IN-1 dihydrochloride]")
9
>>> recorded_number("COc1cc(C[C@H]2C(=O)OC[C@@H]2Cc2ccc(OC)c(OC)c2)ccc1O")
3
>>> recorded_number("CCOC(=O)CCNc1cc(N2CCc3ccccc3CC2)nc(-c2ccccn2)n1")
9
>>> recorded_number("CCOC(=O)Nc1cc(-c2ccc(C)c(NS(C)(=O)=O)c2)nn2c(C)nnc12")
1

---

Tested on: WPMY1-TP53BP1-CLTA
Assay: phenotypically active (imaging signature differs from DMSO and reproducible) at any of 0.3-9 uM (binary (1 = active, 0 = inactive)); higher = active
Settings: treatment time: 24 h
Counter-ions that a name gives are not always drawn.
Outcomes: active, inactive

>>> classification("CC(C)c1cnn2c(NCc3ccccc3)cc(NCCCCCCN)nc12 [BS 181 dihydrochloride]")
"active"
>>> classification("COc1cc(C=O)c([N+](=O)[O-])cc1OC")
"inactive"
>>> classification("CNC(=O)Nc1ccc(-c2nc(N3CC4CCC(C3)O4)c3cnn(C4CCC5(CC4)OCCO5)c3n2)cc1")
"active"
>>> classification("COc1ccc2c(c1)N(C(C)=O)[C@H]1[C@@H]3CO[C@H](C)[C@@H]4CN5CC[C@]21[C@@H]5C[C@H]34 [Strychnospermine]")
"inactive"
>>> classification("O=C(O)c1cc(/N=N/c2ccc(S(=O)(=O)Nc3ccccn3)cc2)ccc1O [Sulfasalazine]")
"inactive"
>>> classification("Cc1ccc(N(CC2=NCCN2)c2cccc(O)c2)cc1 [phentolamine]")
"inactive"
>>> classification("CC(C)NC[C@H](O)COc1cccc2ccccc12 [(S)-(-)-Propranolol hydrochloride]")
"inactive"
>>> classification("CN1C(=O)CC[C@H]1c1cccnc1 [(-)-Cotinine]")
"inactive"
>>> classification("COc1cc2c(NC3CCN(C(C)C)CC3)nc(C3CCCCC3)nc2cc1OCCCN1CCCC1")
"active"
>>> classification("CN(C)CCOC(c1ccc(Cl)cc1)c1ccccn1 (stereo not drawn) [carbinoxamine]")
"inactive"
>>> classification("O[C@H](CNC[C@H](O)[C@@H]1CCc2cc(F)ccc2O1)[C@@H]1CCc2cc(F)ccc2O1 [nebivolol]")
"active"
>>> classification("O=C(O)c1cc(=O)c(O)c(C(=O)O)o1 [Meconic acid]")
"inactive"
>>> classification("COc1cc(N2CCC(N3CCN(C)CC3)CC2)ccc1Nc1ncnc(Nc2ccccc2S(=O)(=O)C(C)C)n1")
"active"
>>> classification("COc1ccc2cc(CCC(C)=O)ccc2c1 [nabumetone]")
"inactive"
>>> classification("O=C([C@@H](Cc1cccc(C(F)(F)F)c1)NS(=O)(=O)c1cc(F)c2c(c1)CCNC2)N1CCCC1 [(R)-PFI 2 hydrochloride]")
"inactive"
>>> classification("COc1cc2nccc(Oc3ccc(NC(=O)NC4CC4)c(Cl)c3)c2cc1C(N)=O [lenvatinib]")
"inactive"
>>> classification("CC1=C(/C=C/C(C)=C/C=C/C(C)=C/C(=O)O)C(C)(C)CCC1 [isotretinoin]")
"active"
>>> classification("O=C(NCCCNc1nc(Nc2cccc(NC(=O)N3CCCC3)c2)ncc1I)c1cccs1")
"active"
